The measurements presented in this section are drawn from ChEMBL document CHEMBL4196056.

Below: a set of entries, each annotated with reported selectivity ratio.
Assay: Selectivity index, ratio of CC50 for African green monkey Vero cells to EC50 for Dengue virus 3 infected in African green monkey Vero cells
Assay type: toxicity
Settings: Vero cells infected with Dengue virus 3, read-out: Ratio CC50/EC50
No unit in the answer, please; the number alone is enough.

In [3]: df
Out[3]:
                             chem_smiles   observation_type  test_result
0  O=C1C(=Cc2ccc(O)c(O)c2)C(=O)c2ccccc21  selectivity ratio          147

Find the recorded selectivity ratio belonging to O=C1C(=Cc2ccc(O)cc2)C(=O)c2ccccc21 and report it. 4

---

Experiment: Selectivity index, ratio of CC50 for African green monkey Vero cells to EC50 for Dengue virus 2 infected in African green monkey Vero cells
Type: toxicity
Details: Vero cells infected with Dengue virus 2, read-out: Ratio CC50/EC50
Below: a set of entries, each annotated with reported selectivity ratio.
No unit in the answer, please; the number alone is enough.

>>> df
                          chem_smiles  test_result
0  O=C1C(=Cc2ccc(O)cc2)C(=O)c2ccccc21            2

Find the recorded selectivity ratio belonging to O=C1C(=Cc2ccc(O)c(O)c2)C(=O)c2ccccc21 and report it. 13

---

Below: a set of entries, each annotated with reported selectivity ratio.
Assay: Selectivity index, ratio of CC50 for African green monkey Vero cells to EC50 for Dengue virus 4 infected in African green monkey Vero cells
Format: toxicity
Details: Vero cells infected with Dengue virus 4, read-out: Ratio CC50/EC50
No unit in the answer, please; the number alone is enough.

                          chem_smiles  test_result
0  O=C1C(=Cc2ccc(O)cc2)C(=O)c2ccccc21            2

// switching to the query compound
Find the recorded selectivity ratio belonging to O=C1C(=Cc2ccc(O)c(O)c2)C(=O)c2ccccc21 and report it. 9

---

Experiment: Selectivity index, ratio of CC50 for African green monkey Vero cells to EC50 for Dengue virus 1 infected in African green monkey Vero cells
Assay type: toxicity
Details: Vero cells infected with Dengue virus 1, read-out: Ratio CC50/EC50
Below: a set of entries, each annotated with reported selectivity ratio.
No unit in the answer, please; the number alone is enough.

In [3]: df
Out[3]:
                          chem_smiles  test_result
0  O=C1C(=Cc2ccc(O)cc2)C(=O)c2ccccc21            2

Find the recorded selectivity ratio belonging to O=C1C(=Cc2ccc(O)c(O)c2)C(=O)c2ccccc21 and report it. 34

---

System: West Nile virus
Test: Inhibition of recombinant West Nile virus NS2B-NS3 protease at 16 umol/L using pERTKR-AMC as substrate preincubated for 30 mins followed by substrate addition by fluorescence assay
The source made the active and inactive calls. The calls are words filed in the database; no cut-off is given here.
Hi! Could you answer with just one of these? class 1 (active), class 0 (inactive)

Here's what some known entries look like.
>>> df
                              chem_smiles  target_or_test_system    group
0      COc1cc(C=C2C(=O)c3ccccc3C2=O)ccc1O        West Nile virus  class 1
1  O=C1C(=Cc2ccc3c(c2)OCO3)C(=O)c2ccccc21        West Nile virus  class 0
2  COc1cc(C=C2C(=O)c3ccccc3C2=O)cc(OC)c1O        West Nile virus  class 1

Answer briefly: the call reported for O=C1C(=Cc2ccco2)C(=O)c2ccccc21 in this assay. class 0

Answer briefly: the call reported for O=C1C(=Cc2ccc([N+](=O)[O-])cc2)C(=O)c2ccccc21 in this assay. class 0

---

System: West Nile virus
Test: Inhibition of recombinant West Nile virus NS2B-NS3 protease at 16 umol/L using pERTKR-AMC as substrate preincubated for 30 mins followed by substrate addition by fluorescence assay
The source made the active and inactive calls. No cut-off for these calls is given here.
Hi! Could you answer with just one of these? active, inactive

Here's what some known entries look like.
>>> df
                           chem_smiles     group
0  O=C1C(=Cc2ccc(Br)cc2)C(=O)c2ccccc21  inactive
1  COc1ccc(C=C2C(=O)c3ccccc3C2=O)cc1OC  inactive
2   O=C1C(=Cc2ccc(F)cc2)C(=O)c2ccccc21  inactive

Answer briefly: the call reported for CN(C)c1ccc(C=C2C(=O)c3ccccc3C2=O)cc1 in this assay. inactive

Answer briefly: the call reported for N#Cc1ccc(C=C2C(=O)c3ccccc3C2=O)cc1 in this assay. inactive

Answer briefly: the call reported for COc1ccc(C=C2C(=O)c3ccccc3C2=O)cc1O in this assay. active
